Overview of recorded pKd for various compounds
TESTED_TARGET: PDE2 (cGMP-dependent 3',5'-cyclic phosphodiesterase; PDE2A) (Homo sapiens, UniProt O00408)
Sequence (O00408 2-941): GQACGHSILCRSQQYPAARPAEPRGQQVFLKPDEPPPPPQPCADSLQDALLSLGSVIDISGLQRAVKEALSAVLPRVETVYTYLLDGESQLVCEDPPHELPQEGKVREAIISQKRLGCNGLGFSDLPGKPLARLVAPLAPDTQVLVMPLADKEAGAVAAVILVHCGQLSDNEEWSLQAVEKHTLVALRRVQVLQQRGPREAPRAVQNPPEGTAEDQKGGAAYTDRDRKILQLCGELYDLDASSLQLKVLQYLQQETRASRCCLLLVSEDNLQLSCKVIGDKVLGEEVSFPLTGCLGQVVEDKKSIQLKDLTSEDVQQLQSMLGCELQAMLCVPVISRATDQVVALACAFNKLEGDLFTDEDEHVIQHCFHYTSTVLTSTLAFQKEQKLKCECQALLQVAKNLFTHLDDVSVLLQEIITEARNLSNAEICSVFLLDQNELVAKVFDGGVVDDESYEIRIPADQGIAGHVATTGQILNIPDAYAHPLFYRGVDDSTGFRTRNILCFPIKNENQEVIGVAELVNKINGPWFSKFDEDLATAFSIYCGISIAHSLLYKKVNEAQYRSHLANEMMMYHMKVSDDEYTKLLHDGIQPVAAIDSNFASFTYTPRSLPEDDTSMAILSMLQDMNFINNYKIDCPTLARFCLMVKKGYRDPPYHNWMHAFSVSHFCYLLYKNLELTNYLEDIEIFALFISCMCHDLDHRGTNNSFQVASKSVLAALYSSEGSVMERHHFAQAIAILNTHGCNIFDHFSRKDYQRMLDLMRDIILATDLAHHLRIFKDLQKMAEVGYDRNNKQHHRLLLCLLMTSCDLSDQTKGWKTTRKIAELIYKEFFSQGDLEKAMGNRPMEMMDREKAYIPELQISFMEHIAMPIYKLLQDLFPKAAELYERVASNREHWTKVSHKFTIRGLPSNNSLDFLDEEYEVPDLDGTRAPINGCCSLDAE
ASSAY_NOTES: MicroScale Thermophoresis, 12-concentration dilution
Format: binding
# reply with the number alone; pKd is -log10 of concentration in mol/L

COMPOUND | pKd
CSc1nc(Cl)c(C)c(NCC2CCOC2)n1 (centres unmarked) | 4.85

Name the recorded pKd of the compound listed here: "CSc1nc2ccccc2c(=O)n1-c1ccc(F)cc1F"
4.99

----------
TESTED_TARGET: PDE2 (cGMP-dependent 3',5'-cyclic phosphodiesterase; PDE2A) (Homo sapiens)
ASSAY_NOTES: biochemical
RECORDED_CONDITIONS: binder
PROPERTY: pKd
# pKd is unitless: minus log10 of the molar concentration; print number only

Output measured pKd for this item: "CCn1c(=O)c(=O)[nH]c2cc(C(=O)Nc3nc(-c4cccnc4)cs3)ccc21"
4.68

----------
TESTED_TARGET: PDE2 (cGMP-dependent 3',5'-cyclic phosphodiesterase; PDE2A) (Homo sapiens, UniProt O00408)
ASSAY_NOTES: MicroScale Thermophoresis, 12-concentration dilution
Format: binding
RECORDED_CONDITIONS: read-out: apparent KD; dye-labelled PDE2; weak binder, no KD fit
PROPERTY: Kd

Given the compound O=C(O)c1ccc(C=C2Cc3c(O)cccc3C2=O)cc1 [Z217160080] , write its reported Kd.
> 100 µM

----------
TESTED_TARGET: PDE2 (cGMP-dependent 3',5'-cyclic phosphodiesterase; PDE2A) (Homo sapiens)
ASSAY_NOTES: biochemical
compounds and their reported pKd
In plain terms, pKd is the concentration in mol/L turned into minus its base-10 logarithm.

COMPOUND | pKd
CSc1nc(Cl)c(C)c(NCC2CCOC2)n1 (centres unmarked) [Z3216015031] | 4.89

State, in one line, measured pKd of CSc1nc2ccccc2c(=O)n1-c1ccc(F)cc1F [Z19056583]
5.02

----------
TESTED_TARGET: PDE2 (cGMP-dependent 3',5'-cyclic phosphodiesterase; PDE2A) (Homo sapiens, UniProt O00408)
ASSAY_NOTES: MicroScale Thermophoresis, 12-concentration dilution
Assay type: binding
RECORDED_CONDITIONS: dye-labelled PDE2; 1:1 fit
PROPERTY: Kd (µM)
Entry rule: numbers only, all in µM.

Provide only the value of recorded Kd for "CCn1c(=O)c(=O)[nH]c2cc(C(=O)Nc3nc(-c4cccnc4)cs3)ccc21"
24.9

----------
Let's look at some molecules and their measured Kd.
TESTED_TARGET: PDE2 (cGMP-dependent 3',5'-cyclic phosphodiesterase; PDE2A) (Homo sapiens)
ASSAY_NOTES: MicroScale Thermophoresis, 12-concentration dilution
Assay type: binding

Use these answered entries as a reference point.
SMILES_ENTRY | Kd
CCSc1nc2ccccc2c2nc(C)nn12 | > 100 µM
O=C(Nc1ccc(Cl)cc1F)c1ccc(-n2cnc3ccccc32)cc1 | > 100 µM

For the next question, use this molecule.
Give me measured Kd, please, for this molecule: "Cc1nccc(C(=O)Nc2[nH]ncc2-c2cccc(Cl)c2)n1"
> 100 µM
